# target: VEGA-NRP1 (Homo sapiens)
# Sequence (P15692 whole entry): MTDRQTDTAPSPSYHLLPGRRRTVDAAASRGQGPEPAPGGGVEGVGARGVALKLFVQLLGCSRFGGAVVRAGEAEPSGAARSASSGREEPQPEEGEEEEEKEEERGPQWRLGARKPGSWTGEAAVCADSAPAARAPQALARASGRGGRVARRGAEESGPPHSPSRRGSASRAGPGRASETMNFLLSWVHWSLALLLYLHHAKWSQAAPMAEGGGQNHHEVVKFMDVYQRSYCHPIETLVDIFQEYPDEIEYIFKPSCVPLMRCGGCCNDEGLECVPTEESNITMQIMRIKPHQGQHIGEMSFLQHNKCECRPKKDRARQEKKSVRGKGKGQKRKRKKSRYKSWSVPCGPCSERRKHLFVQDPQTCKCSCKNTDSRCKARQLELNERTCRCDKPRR
# Sequence (O14786 whole entry): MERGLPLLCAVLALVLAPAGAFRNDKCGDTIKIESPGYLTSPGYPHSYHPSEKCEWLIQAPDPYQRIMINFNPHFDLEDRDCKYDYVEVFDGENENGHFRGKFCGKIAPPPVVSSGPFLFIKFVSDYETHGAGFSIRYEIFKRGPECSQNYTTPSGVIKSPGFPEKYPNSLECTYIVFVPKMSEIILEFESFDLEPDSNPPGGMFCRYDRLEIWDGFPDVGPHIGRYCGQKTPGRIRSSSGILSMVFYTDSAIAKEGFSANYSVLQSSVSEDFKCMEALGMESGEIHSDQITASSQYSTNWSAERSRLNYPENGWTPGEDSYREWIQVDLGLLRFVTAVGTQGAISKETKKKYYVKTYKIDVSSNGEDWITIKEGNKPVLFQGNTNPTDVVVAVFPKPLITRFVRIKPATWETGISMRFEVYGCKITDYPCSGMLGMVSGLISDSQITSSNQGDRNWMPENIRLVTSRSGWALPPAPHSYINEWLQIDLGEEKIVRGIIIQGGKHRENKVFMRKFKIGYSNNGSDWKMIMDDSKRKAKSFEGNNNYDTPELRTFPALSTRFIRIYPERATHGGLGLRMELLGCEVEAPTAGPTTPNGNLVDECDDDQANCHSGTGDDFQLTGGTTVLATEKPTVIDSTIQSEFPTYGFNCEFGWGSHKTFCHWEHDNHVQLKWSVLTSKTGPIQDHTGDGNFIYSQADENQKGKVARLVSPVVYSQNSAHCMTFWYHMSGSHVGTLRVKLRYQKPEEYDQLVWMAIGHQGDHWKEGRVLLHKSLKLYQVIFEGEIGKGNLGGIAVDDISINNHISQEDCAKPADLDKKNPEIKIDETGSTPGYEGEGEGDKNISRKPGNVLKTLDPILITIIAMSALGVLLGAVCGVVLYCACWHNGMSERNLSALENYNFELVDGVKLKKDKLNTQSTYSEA
# measurement.notes: Inhibition of human biotinylated-VEGFA165 binding to recombinant human NRP-1 measured after 2 hrs by chemiluminescent based ELISA
# Format: protein assay
# recorded.conditions: read-out: IC50
Where a SMILES comes first, the peptide text is derived from it. [ ]: non-standard residue; d: D form. ξ: configuration not given here. Oic(3aξ,7aξ) = O=C(O)[C@@H]1CC2CCCCC2N1; hArg = N=C(N)NCCCC[C@H](N)C(=O)O; hCys = N[C@@H](CCS)C(=O)O; Dab = NCC[C@H](N)C(=O)O
The entries below come with measured pIC50 values attached.
Reminder that pIC50 means the negative base-10 logarithm of the concentration expressed in mol/L.

Prompt line: Given the entry N=C(N)NCCCC[C@H](N)C(=O)NCCCC[C@H](NC(=O)[C@@H](N)CCS)C(=O)N[C@@H](CCN)C(=O)N1C2CCCCC2C[C@H]1C(=O)N[C@@H](CCCNC(=N)N)C(=O)O (some centres undefined) (H-[hCys]K(hArg)[Dab][Oic(3aξ,7aξ)]R-OH) , report its measured pIC50.
Response line: 6.15

Prompt line: Using the record for N=C(N)NCCCC[C@H](NC(=O)[C@@H](N)CS)C(=O)NCCCC[C@H](N)C(=O)N[C@@H](CCN)C(=O)N1C2CCCCC2C[C@H]1C(=O)N[C@@H](CCCNC(=N)N)C(=O)O (some centres undefined) (HELM PEPTIDE1{K.[Dab].[O=C([C@@H]1CC2CCCCC2N1[*:1])[*:2]].R}|PEPTIDE2{C.[N=C(N)NCCCC[C@H](N[*:1])C(=O)[*:2]]}$PEPTIDE1,PEPTIDE2,1:R3-2:R2$$$V2.0) , report its pIC50.
Response line: 7.34

Prompt line: # lookup: pIC50 of N=C(N)NCCCC[C@H](N)C(=O)NCCCC[C@H](NC(=O)[C@@H](N)CO)C(=O)N[C@@H](CCN)C(=O)N1C2CCCCC2C[C@H]1C(=O)N[C@@H](CCCNC(=N)N)C(=O)O (some centres undefined) (HELM PEPTIDE1{S.K.[Dab].[O=C([C@@H]1CC2CCCCC2N1[*:1])[*:2]].R}|PEPTIDE2{[N=C(N)NCCCC[C@H](N)C(=O)[*:2]]}$PEPTIDE1,PEPTIDE2,2:R3-1:R2$$$V2.0)
Response line: 5.81

Prompt line: Which pIC50 value belongs to N=C(N)NCCCC[C@H](N)C(=O)NCCCC[C@H](NC(=O)[C@@H](N)CS)C(=O)N[C@@H](CCN)C(=O)N1C2CCCCC2C[C@H]1C(=O)N[C@@H](CCCNC(=N)N)C(=O)O (some centres undefined) (HELM PEPTIDE1{C.K.[Dab].[O=C([C@@H]1CC2CCCCC2N1[*:1])[*:2]].R}|PEPTIDE2{[N=C(N)NCCCC[C@H](N)C(=O)[*:2]]}$PEPTIDE1,PEPTIDE2,2:R3-1:R2$$$V2.0) ?
Response line: 7.41
